- Tested on: bermudagrass
- Test details: Test C pre-/postemergence test
- Type: in vivo, Cynodon dactylon
- Condition label: Postemergence, 31 g ai/ha
- Text: Seeds of plant species selected from blackgrass (Alopecurus myosuroides), downy brome (Bromus tectorum), green foxtail (Setaria viridis), Italian ryegrass (Lolium multiflorum), wheat (Triticum aestivum), wild oat (Avena fatua), catchweed bedstraw (Galium aparine), Russian thistle (Salsola kali), […] […]
Entries and their Plant response rating (0 to 100), Bermudagrass
Measured quantity: Plant response rating (0 to 100), Bermudagrass

Molecule: Cn1nc(C(F)(F)F)c(C[S+]([O-])c2ccc(Cl)c[n+]2[O-])c1OC(F)F (centres unmarked) [Compound 6]
Assay value: 0
--
Molecule: CCn1nc(C(F)(F)F)c(C[S+]([O-])c2cccc[n+]2[O-])c1OCC(F)(F)F (racemic) [Compound 65]
Assay value: 0
--
Molecule: Cc1cc[n+]([O-])c(S(=O)(=O)Cc2c(C(F)(F)F)nn(C)c2OC(F)F)c1 [Compound 2]
Assay value: 0
--
Molecule: Cn1nc(C(F)(F)F)c(C[S+]([O-])c2ccc(Cl)c[n+]2[O-])c1OCC(F)(F)F (racemic) [Compound 62]
Assay value: 0
--
Molecule: CCn1nc(C(F)(F)F)c(C(C)S(=O)(=O)c2cccc[n+]2[O-])c1OCC(F)(F)F (centres unmarked) [Compound 69]
Assay value: 0

* * *

- Test system: green foxtail
- Test details: Test C pre-/postemergence test
- Format: in vivo, Setaria viridis
- Condition label: Postemergence, 250 g ai/ha; scale 0 to 100, 0 no effect, 100 complete control

Compound: Cn1nc(C(F)(F)F)c(C[S+]([O-])c2ccc(Cl)c[n+]2[O-])c1OCC(F)(F)F (racemic)
Plant response rating, Foxtail, Green: 80
//
Compound: CCn1nc(C(F)(F)F)c(C(C)S(=O)(=O)c2cccc[n+]2[O-])c1OCC(F)(F)F (stereo not drawn)
Plant response rating, Foxtail, Green: 90
//
Compound: Cn1nc(C(F)(F)C(F)(F)F)c(C[S+]([O-])c2cccc[n+]2[O-])c1OCC(F)(F)F (stereo not drawn)
Plant response rating, Foxtail, Green: 85
//
Compound: CC(c1c(C(F)(F)F)nn(C)c1Cl)S(=O)(=O)c1ccc(Cl)c[n+]1[O-] (racemic)
Plant response rating, Foxtail, Green: 5
//
Compound: Cn1nc(C(F)(F)F)c(C[S+]([O-])c2cccc[n+]2[O-])c1OC(F)F (stereo not drawn)
Plant response rating, Foxtail, Green: 55
//
Compound: Cn1nc(C(F)(F)F)c(C[S+]([O-])c2ccc(F)c[n+]2[O-])c1OC(F)F (stereo not drawn)
Plant response rating, Foxtail, Green: 80

* * *

Property: Velvetleaf plant response rating; scope: individual molecules
- Test system: velvetleaf
- Test details: Test A pre-/postemergence greenhouse test
- Assay type: in vivo, Abutilon theophrasti
- Condition label: Preemergence, 125 g ai/ha; 0 to 100 scale, 0 no effect, 100 complete control

Molecule: Cn1nc(C(F)(F)F)c(CS(=O)(=O)c2ccc(Cl)c[n+]2[O-])c1OCC(F)(F)C(F)(F)F
Velvetleaf plant response rating: 0

Molecule: CC(c1c(C(F)(F)F)nn(C)c1OC(F)F)S(=O)(=O)c1cccc[n+]1[O-] (stereo not shown)
Velvetleaf plant response rating: 90

Molecule: O=S(=O)(Cc1c(C(F)(F)F)nn(CC(F)(F)F)c1Cl)c1cccc[n+]1[O-]
Velvetleaf plant response rating: 0

Molecule: CC(C)c1cc[n+]([O-])c([S+]([O-])Cc2c(C(F)(F)F)nn(C)c2OCC(F)(F)F)c1 (stereo not shown)
Velvetleaf plant response rating: 40

* * *

- Tested on: annual bluegrass
- Test details: Test F preemergence test
- Format: in vivo, Poa annua
- Condition label: Preemergence; 16 g ai/ha; scale 0 to 100

Compound: Cn1nc(C(F)(F)F)c(C[S+]([O-])c2cccc[n+]2[O-])c1Cl (stereo not shown)
Plant response rating, Bluegrass: 0
//
Compound: Cc1cc[n+]([O-])c([S+]([O-])Cc2c(C(F)(F)F)nn(C)c2OC(F)F)c1 (stereo not shown)
Plant response rating, Bluegrass: 0
//
Compound: Cn1nc(C(F)(F)F)c(CS(=O)(=O)c2cccc[n+]2[O-])c1OCC(F)(F)F
Plant response rating, Bluegrass: 20
//
Compound: Cn1nc(C(F)(F)F)c(C[S+]([O-])c2cccc[n+]2[O-])c1OCC(F)(F)F (racemic)
Plant response rating, Bluegrass: 0

* * *

- Tested on: corn
- Test details: Test A pre-/postemergence greenhouse test
- Assay type: in vivo, Zea mays
- Condition label: Postemergence, 500 g ai/ha; 0 to 100 scale, 0 is no effect, 100 is complete control
# Corn plant response rating values compiled below
Measured quantity: Corn plant response rating

Compound: Cn1nc(C(F)(F)F)c(C[S+]([O-])c2cc(Cl)cc[n+]2[O-])c1OCC(F)(F)F (centres unmarked)
Target or test system: corn
Assay value: 70
--
Compound: CC(C)c1cc[n+]([O-])c([S+]([O-])Cc2c(C(F)(F)F)nn(C)c2OCC(F)(F)F)c1 (centres unmarked)
Target or test system: corn
Assay value: 70
--
Compound: Cn1nc(C(F)(F)F)c(CS(=O)(=O)c2cccc[n+]2[O-])c1Cl
Target or test system: corn
Assay value: 60
--
Compound: Cn1nc(OC(F)F)c(CS(=O)(=O)c2cccc[n+]2[O-])c1C(F)(F)F
Target or test system: corn
Assay value: 50
--
Compound: Cn1nc(C(F)(F)F)c(C(Cl)S(=O)(=O)c2ccc(Cl)c[n+]2[O-])c1Cl (racemic)
Target or test system: corn
Assay value: 0
--
Compound: Cc1ccc[n+]([O-])c1[S+]([O-])Cc1c(C(F)(F)F)nn(C)c1OC(F)F (centres unmarked)
Target or test system: corn
Assay value: 60
--
Compound: Cc1cc[n+]([O-])c(S(=O)(=O)Cc2c(C(F)(F)F)nn(C)c2OC(F)F)c1
Target or test system: corn
Assay value: 60
--
Compound: Cn1nc(C(F)(F)C(F)(F)F)c(CS(=O)(=O)c2cccc[n+]2[O-])c1OCC(F)(F)F
Target or test system: corn
Assay value: 40

* * *

In this section we review reported Corn plant response rating values for a set of molecules.
- System: corn
- Test details: Test C pre-/postemergence test
- Type: in vivo, Zea mays
- Condition label: preemergence, 250 g ai/ha; scale 0 (no effect) to 100 (complete control)
- Excerpt: Seeds of plant species selected from blackgrass (Alopecurus myosuroides), downy brome (Bromus tectorum), green foxtail (Setaria viridis), Italian ryegrass (Lolium multiflorum), wheat (Triticum aestivum), wild oat (Avena fatua), catchweed bedstraw (Galium aparine), Russian thistle (Salsola kali), […] […]

Molecule: Cn1nc(C(F)(F)F)c(C[S+]([O-])c2cc(Cl)cc[n+]2[O-])c1Cl (racemic)
Corn plant response rating: 80

Molecule: Cc1cc[n+]([O-])c(S(=O)(=O)Cc2c(C(F)(F)F)nn(C)c2OC(C)C(F)(F)F)c1 (stereo not shown)
Corn plant response rating: 60

Molecule: Cn1nc(C(F)(F)F)c(C[S+]([O-])c2cccc[n+]2[O-])c1OCC(F)F (stereo not shown)
Corn plant response rating: 98

Molecule: CC(Oc1c(C[S+]([O-])c2cccc[n+]2[O-])c(C(F)(F)F)nn1C)C(F)(F)F (stereo not shown)
Corn plant response rating: 100

Molecule: CCc1cc[n+]([O-])c([S+]([O-])Cc2c(C(F)(F)F)nn(C)c2OC(F)F)c1 (stereo not shown)
Corn plant response rating: 98

Molecule: CCn1nc(C(F)(F)F)c(C[S+]([O-])c2cc(C)cc[n+]2[O-])c1OCC(F)(F)F (racemic)
Corn plant response rating: 100

Molecule: CCn1nc(C(F)(F)F)c(C[S+]([O-])c2cccc[n+]2[O-])c1OCC(F)(F)F (racemic)
Corn plant response rating: 100

* * *

- System: corn
- Test details: Test A pre-/postemergence greenhouse test
- Type: in vivo, Zea mays
- Condition label: Preemergence, 500 g ai/ha; 0 to 100 scale where 0 is no effect and 100 is complete control

Compound: [O-][n+]1cc(Cl)ccc1[S+]([O-])Cc1c(C(F)(F)F)nn(CC(F)(F)F)c1Cl (stereo not shown)
Plant response rating, Corn: 90

Compound: Cn1nc(C(F)(F)F)c(C[S+]([O-])c2ccc(F)c[n+]2[O-])c1OCC(F)(F)F (stereo not shown)
Plant response rating, Corn: 80

Compound: CC(c1c(C(F)(F)F)nn(C)c1OC(F)F)S(=O)(=O)c1ccc(Br)c[n+]1[O-] (racemic)
Plant response rating, Corn: 0

Compound: Cc1cc[n+]([O-])c([S+]([O-])Cc2c(C(F)(F)F)nn(C)c2OCC(F)F)c1 (stereo not shown)
Plant response rating, Corn: 50

Compound: Cn1nc(C(F)(F)F)c(C[S+]([O-])c2cccc[n+]2[O-])c1OCC(F)F (stereo not shown)
Plant response rating, Corn: 70

Compound: Cn1nc(C(F)(F)F)c(CS(=O)(=O)c2ccc(F)c[n+]2[O-])c1Cl
Plant response rating, Corn: 0

Compound: Cc1cc([S+]([O-])Cc2c(C(F)(F)F)nn(C)c2OCC(F)(F)F)[n+]([O-])cc1Cl (stereo not shown)
Plant response rating, Corn: 90

Compound: O=S(=O)(Cc1c(C(F)(F)F)nn(CC(F)(F)F)c1Cl)c1ccc(Cl)c[n+]1[O-]
Plant response rating, Corn: 0

Compound: CCn1nc(C(F)(F)F)c(C[S+]([O-])c2cc(C)cc[n+]2[O-])c1OCC(F)(F)F (racemic)
Plant response rating, Corn: 80

Compound: Cc1cc[n+]([O-])c(S(=O)(=O)Cc2c(C(F)(F)F)nn(C)c2Cl)c1
Plant response rating, Corn: 50

Compound: CCc1cc[n+]([O-])c(S(=O)(=O)Cc2c(C(F)(F)F)nn(C)c2OCC(F)(F)F)c1
Plant response rating, Corn: 50

Compound: Cn1nc(C(F)(F)F)c(CS(=O)(=O)c2cccc[n+]2[O-])c1OCC(F)(F)F
Plant response rating, Corn: 70

Compound: Cn1nc(C(F)(F)F)c(C(Cl)S(=O)(=O)c2cccc[n+]2[O-])c1Cl (stereo not shown)
Plant response rating, Corn: 30

Compound: CC(c1c(C(F)(F)F)nn(C)c1Cl)[S+]([O-])c1cccc[n+]1[O-] (mixture of isomers)
Plant response rating, Corn: 0

Compound: CC(c1c(C(F)(F)F)nn(CC(F)(F)F)c1Cl)[S+]([O-])c1cccc[n+]1[O-] (stereo not shown)
Plant response rating, Corn: 0

Compound: Cn1nc(C(F)(F)F)c(C[S+]([O-])c2c(F)ccc[n+]2[O-])c1Cl (stereo not shown)
Plant response rating, Corn: 0
